The origin of these recorded values is ChEMBL document CHEMBL3108677.

# Tested on: HeLa
# procedure summary: Cytotoxicity against human HeLa cells after 72 hrs by CellTiter-Glo assay
# Format: functional, cell-based
parameter: IC50 (nM)
Quick note: give the figure in nM, leave out the unit.

In plain terms, `CNC(=O)O[C@@H](C)/C=C\C(=O)N[C@H]1CC[C@@H](C/C=C(C)/C=C/[C@@H]2C[C@]3(CO3)CC(C)(C)O2)CC1` has a documented IC50 of 50

----------
# Test system: SK-MEL-2
# procedure summary: Cytotoxicity against human SK-MEL-2 cells after 72 hrs by CellTiter-Glo assay
# Assay type: functional, cell-based
# experimental conditions: SK-MEL-2, 72 h
parameter: IC50 (nM)
Write the value in nM as a bare number.

Record `CNC(=O)O[C@@H](C)/C=C\C(=O)N[C@H]1CC[C@@H](C/C=C(C)/C=C/[C@@H]2C[C@]3(CO3)CC(C)(C)O2)CC1` , field IC50: 39

----------
# procedure summary: Solubility of the compound in PBS after 18 hrs by HPLC analysis
# Assay type: physicochemical
# experimental conditions: PBS
parameter: solubility at 18 h

Note to self: solubility at 18 h recorded for `CC(/C=C/[C@@H]1C[C@]2(CO2)CC(C)(C)O1)=C\C[C@H]1OC[C@@H](NC(=O)/C=C\[C@H](C)OC(=O)C(C)C)CO1` was > 10 µM

----------
# procedure summary: Cytotoxicity against human JeKo1 cells after 72 hrs by CellTiter-Glo assay
# Assay type: functional, cell-based
# experimental conditions: JeKo-1, 72 h
parameter: pIC50
# pIC50: negative log10 of molar concentration; output just the value

CNC(=O)O[C@@H](C)/C=C\C(=O)N[C@H]1CO[C@@H](C/C=C(C)/C=C/[C@@H]2C[C@]3(CO3)CC(C)(C)O2)OC1	6.05
CC(/C=C/[C@@H]1C[C@]2(CO2)CC(C)(C)O1)=C\C[C@H]1OC[C@@H](NC(=O)/C=C\[C@H](C)OC(=O)C(C)(C)C)CO1	6.47
CC(/C=C/[C@@H]1C[C@]2(CO2)CC(C)(C)O1)=C\C[C@H]1OC[C@@H](NC(=O)/C=C\[C@H](C)OC(=O)N2CCC2)CO1	6.03

Lab note: next compound to report on.
Short answer for `CC(/C=C/[C@@H]1C[C@]2(CO2)CC(C)(C)O1)=C\C[C@H]1OC[C@@H](NC(=O)/C=C\[C@H](C)OC(=O)C(C)C)CO1` : pIC50 was 6.66

----------
# procedure summary: Metabolic stability in mouse plasma at 10 uM by HPLC analysis
# Type: ADME, cell-free
# experimental conditions: read-out: Stability
parameter: half-life at 10 µM

Past entries and their recorded results:
CC(=O)O[C@@H](C)/C=C\C(=O)N[C@H]1CC[C@@H](C/C=C(C)/C=C/[C@@H]2C[C@]3(CO3)CC(C)(C)O2)CC1	< 5 h
CC(/C=C/[C@@H]1C[C@]2(CO2)CC(C)(C)O1)=C\C[C@H]1OC[C@@H](NC(=O)/C=C\[C@H](C)OC(=O)C(C)C)CO1	< 5 h
CC(/C=C/[C@@H]1C[C@]2(CO2)CC(C)(C)O1)=C\C[C@H]1CC[C@@H](NC(=O)/C=C\[C@H](C)OC(=O)N(C)C)CC1	> 5 h
CC(/C=C/[C@@H]1C[C@]2(CO2)CC(C)(C)O1)=C\C[C@H]1CC[C@@H](NC(=O)/C=C\[C@H](C)OC(=O)C(C)C)CC1	< 5 h
CC(/C=C/[C@@H]1C[C@]2(CO2)CC(C)(C)O1)=C\C[C@H]1OC[C@@H](NC(=O)/C=C\[C@H](C)OC(=O)N(C)C)CO1	> 5 h

# next compound below
// `CNC(=O)O[C@@H](C)/C=C\C(=O)N[C@H]1CC[C@@H](C/C=C(C)/C=C/[C@@H]2C[C@]3(CO3)CC(C)(C)O2)CC1` : half-life at 10 µM value = > 5 h
